Target: T1, PD-1 on PD1-CHO cells
T1 construct: also called cell-surface PD-1
T1 sequence (chain, as listed by the source limits assumed): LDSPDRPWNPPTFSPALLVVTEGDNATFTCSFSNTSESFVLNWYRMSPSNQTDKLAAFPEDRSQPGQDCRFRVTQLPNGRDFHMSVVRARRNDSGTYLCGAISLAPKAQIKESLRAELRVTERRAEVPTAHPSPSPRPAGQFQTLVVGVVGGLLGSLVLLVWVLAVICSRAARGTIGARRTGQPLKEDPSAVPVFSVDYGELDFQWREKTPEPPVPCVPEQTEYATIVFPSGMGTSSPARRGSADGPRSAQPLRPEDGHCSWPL
Assay: cell ELISA on fixed PD1-CHO cells, anti-human Fc-HRP
readout-kind: EC50 (read off the curve)

binder	recorded-result
DFPD1-13 full-length anti-PD-1 monoclonal antibody (antibody, human IgG4 S228P, kappa, V domains shown, Expressed in HEK293E cells and purified on protein A) VH: QVQLVESGGGVVQPGRSLRLDCKASGITFSNNGMHWVRQAPGKGLEWVAVIWYDSSRKYYADSVKGRFTISRDNSKNTLFLQMNSLRAEDTAVYYCATNNDYWGQGTLVTVSS VL: DIQMTQSPSSLSASVGDRVTITCRASQSVSNYLDWYQQKPGKAPKLLIYDASTRATGVPSRFSGSGSGTDFTLTISSLQPEDFATYYCQQNMQLPLTFGQGTKVEIKR	~2 nM

DFPD1-11 full-length anti-PD-1 monoclonal antibody (antibody, human IgG4 S228P, kappa, V domains shown, Expressed in HEK293E cells and purified on protein A) VH: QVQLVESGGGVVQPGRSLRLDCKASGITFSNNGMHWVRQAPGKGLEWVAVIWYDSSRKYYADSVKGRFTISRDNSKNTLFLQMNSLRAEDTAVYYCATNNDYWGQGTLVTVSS VL: DIQMTQSPSSLSASVGDRVTITCRASQSIHNYLDWYQQKPGKAPKLLIYNASTRATGVPSRFSGSGSGTDFTLTISSLQPEDFATYYCQQELHLPLTFGQGTKVEIKR has a reported EC50 (read off the curve) of ~4 nM

EC50 (read off the curve) recorded for this binder, DFPD1-9 full-length anti-PD-1 monoclonal antibody (antibody, human IgG4 S228P, kappa, V domains shown, Expressed in HEK293E cells and purified on protein A) VH: QVQLVESGGGVVQPGRSLRLDCKASGITFSNYGMHWVRQAPGKGLEWVAVIWYDSSRKYYADSVKGRFTISRDNSKNTLFLQMNSLRAEDTAVYYCATNNDYWGQGTLVTVSS VL: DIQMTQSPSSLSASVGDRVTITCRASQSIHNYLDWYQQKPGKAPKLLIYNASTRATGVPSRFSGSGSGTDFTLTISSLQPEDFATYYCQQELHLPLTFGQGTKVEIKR , is ~2 nM

Query DFPD1-10 full-length anti-PD-1 monoclonal antibody (antibody, human IgG4 S228P, kappa, V domains shown, Expressed in HEK293E cells and purified on protein A) VH: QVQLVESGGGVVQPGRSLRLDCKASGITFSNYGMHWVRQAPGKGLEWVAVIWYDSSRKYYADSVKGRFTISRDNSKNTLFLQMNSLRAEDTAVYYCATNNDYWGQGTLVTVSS VL: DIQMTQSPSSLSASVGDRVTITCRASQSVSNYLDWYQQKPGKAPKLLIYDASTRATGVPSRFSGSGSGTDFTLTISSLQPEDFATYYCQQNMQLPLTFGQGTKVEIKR yields EC50 (read off the curve) of ~0.9 nM

Hello, the source for this data is patent US20190144541A1, in case you need it.
